# pIC50 listing for each entry below
biological target: Tie2 (Homo sapiens, UniProt Q02763); assay: Tie2 ELISA assay (assay 1): cellular Tie2 autophosphorylation; assay type: cell-based; parameters: expressed in transfected cells; host or cells: CHO (DHFR-deficient), stably transfected; conditions: CHO cells stably transfected with Tie2, stimulated by angiopoietin-2; Tie2 autophosphorylation by sandwich-ELISA; read-out: Tie 2 activity (assay 1)
Sequence (Q02763 23-1124): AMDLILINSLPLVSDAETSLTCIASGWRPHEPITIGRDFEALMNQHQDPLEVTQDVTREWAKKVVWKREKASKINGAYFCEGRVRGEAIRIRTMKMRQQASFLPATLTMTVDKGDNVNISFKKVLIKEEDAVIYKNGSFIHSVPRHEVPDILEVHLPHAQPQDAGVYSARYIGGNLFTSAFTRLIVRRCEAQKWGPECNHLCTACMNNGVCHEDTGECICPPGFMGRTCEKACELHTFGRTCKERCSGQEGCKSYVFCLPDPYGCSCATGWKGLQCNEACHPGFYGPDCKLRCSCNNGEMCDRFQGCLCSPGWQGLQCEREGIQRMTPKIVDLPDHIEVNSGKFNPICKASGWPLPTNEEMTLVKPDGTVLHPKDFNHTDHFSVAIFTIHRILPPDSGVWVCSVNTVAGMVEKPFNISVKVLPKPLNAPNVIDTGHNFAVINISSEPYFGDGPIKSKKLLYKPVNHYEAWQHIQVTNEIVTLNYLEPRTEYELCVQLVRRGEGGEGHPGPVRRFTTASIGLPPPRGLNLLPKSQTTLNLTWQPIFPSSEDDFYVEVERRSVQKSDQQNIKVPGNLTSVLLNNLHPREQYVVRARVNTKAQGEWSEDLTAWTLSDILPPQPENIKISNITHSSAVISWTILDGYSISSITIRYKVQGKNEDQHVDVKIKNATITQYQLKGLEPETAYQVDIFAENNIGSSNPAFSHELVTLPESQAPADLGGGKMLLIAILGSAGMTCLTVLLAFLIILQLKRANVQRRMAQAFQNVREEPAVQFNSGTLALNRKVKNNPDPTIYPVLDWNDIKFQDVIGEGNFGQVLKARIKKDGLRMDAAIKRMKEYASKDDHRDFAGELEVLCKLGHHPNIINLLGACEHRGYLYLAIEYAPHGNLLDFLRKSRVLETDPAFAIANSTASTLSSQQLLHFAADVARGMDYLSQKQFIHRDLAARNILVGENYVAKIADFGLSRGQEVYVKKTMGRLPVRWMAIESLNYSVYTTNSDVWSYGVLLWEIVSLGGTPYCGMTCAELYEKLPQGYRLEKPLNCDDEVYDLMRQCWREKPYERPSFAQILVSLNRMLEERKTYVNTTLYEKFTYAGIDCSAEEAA
pIC50: −log10 of the molar value.

Guide cases for pIC50, answers given:
Cn1nc(N)c2c(-c3ccc(NC(=O)Nc4cccc(C(F)(F)F)c4)cc3)cc(C3(C(=O)NCCO)CC3)nc21    6.00 to 7.00
CCOC(=O)C1(c2cc(-c3ccc(NC(=O)Nc4cccc(C(F)(F)F)c4)cc3)c3c(N)nn(C)c3n2)CC1    ≥ 7.00
Cc1ccc(F)c(NC(=O)Nc2ccc(-c3cc(C4(C(=O)N5CCCC5)CC4)nc4c3c(N)nn4C)cc2)c1    ≥ 7.00

**Q:** I'd like to know its pIC50. The compound in question is `Cn1nc(N)c2c(-c3ccc(NC(=O)Nc4cccc(C(F)(F)F)c4)cc3)cc(C3(C(N)=O)CC3)nc21`
**A:** ≥ 7.00

**Q:** I'd like to know its pIC50. The compound in question is `Cc1ccc(F)c(NC(=O)Nc2ccc(-c3cc(C4(C(=O)N(C)C)CC4)nc4c3c(N)nn4C)cc2)c1`
**A:** ≥ 7.00

---

molecular target: human c-kit (Homo sapiens); construct: GST-tagged recombinant kinase domain of the human c-kit; GST; experiment: cKIT-Kinase HTRF-Assay (assay 4); conditions: GST-tagged kinase domain of human c-kit, 10 μM ATP
Sequence (P10721 589-937 limits assumed): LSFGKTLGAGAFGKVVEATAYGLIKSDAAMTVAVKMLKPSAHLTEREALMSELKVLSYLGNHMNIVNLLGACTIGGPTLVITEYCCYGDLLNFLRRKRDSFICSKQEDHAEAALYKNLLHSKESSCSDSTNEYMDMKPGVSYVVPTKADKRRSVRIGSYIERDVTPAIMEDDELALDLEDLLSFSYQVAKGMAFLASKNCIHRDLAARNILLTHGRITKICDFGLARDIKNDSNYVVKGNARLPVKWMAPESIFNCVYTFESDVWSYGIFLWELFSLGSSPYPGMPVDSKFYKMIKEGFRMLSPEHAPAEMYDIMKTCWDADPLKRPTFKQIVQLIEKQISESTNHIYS
pIC50: −log10 of the molar value.
endpoint: pIC50

Guide cases for pIC50, answers given:
Cc1ccc(F)c(NC(=O)Nc2ccc(-c3cc(C4(C(=O)N(C)C)CC4)nc4c3c(N)nn4C)cc2)c1    5.00 to 6.00
Cc1ccc(F)c(NC(=O)Nc2ccc(-c3ccnc4c3c(N)nn4C)cc2)c1 [PA5, reference compound]    ≥ 7.00
CC(C)NC(=O)C1(c2cc(-c3ccc(NC(=O)Nc4cccc(C(F)(F)F)c4)cc3)c3c(N)nn(C)c3n2)CC1    5.00 to 6.00
CCNC(=O)C1(c2cc(-c3ccc(NC(=O)Nc4cccc(C(F)(F)F)c4)cc3)c3c(N)nn(C)c3n2)CC1    5.00 to 6.00
CCN(CC)C(=O)C1(c2cc(-c3ccc(NC(=O)Nc4cccc(C(F)(F)F)c4)cc3)c3c(N)nn(C)c3n2)CC1    5.00 to 6.00
Cn1nc(N)c2c(-c3ccc(NC(=O)Nc4cccc(C(F)(F)F)c4)cc3)cc(C3CCCCC3)nc21    6.00 to 7.00

Pending molecule:
**Q:** I'd like to know its pIC50. The molecule in question is `Cn1nc(N)c2c(-c3ccc(NC(=O)Nc4cccc(C(F)(F)F)c4)cc3)cc(C3(C(=O)Nc4ccccc4)CC3)nc21`
**A:** 5.00 to 6.00

---

# pIC50 listing for each entry below
target: Tie2 (Homo sapiens); test: Tie-2-Kinase HTRF-Assay without kinase preactivation (assay 2); assay type: biochemical; parameters: A recombinant fusion protein of GST and the intracellular domains of Tie-2; GST; made in house; host or cells: insect cells (Hi-5); conditions: GST-Tie-2 intracellular domains, no preactivation, 10 μM ATP
Sequence (Q02763 770-1124 limits assumed): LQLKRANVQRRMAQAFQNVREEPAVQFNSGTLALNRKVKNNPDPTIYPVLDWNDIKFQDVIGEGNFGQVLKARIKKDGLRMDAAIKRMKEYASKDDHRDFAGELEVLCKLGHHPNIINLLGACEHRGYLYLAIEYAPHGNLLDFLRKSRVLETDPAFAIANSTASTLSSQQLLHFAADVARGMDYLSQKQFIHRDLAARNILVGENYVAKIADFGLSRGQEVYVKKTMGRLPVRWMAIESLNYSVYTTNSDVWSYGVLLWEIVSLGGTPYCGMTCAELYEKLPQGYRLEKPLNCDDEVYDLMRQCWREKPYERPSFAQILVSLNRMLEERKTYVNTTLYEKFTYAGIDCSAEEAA
pIC50: −log10 of the molar value.

Guide cases for pIC50, answers given:
CN(C)C(=O)C[C@@H]1C[C@H](c2cc(-c3ccc(NC(=O)Nc4cccc(C(F)(F)F)c4)cc3)c3c(N)nn(C)c3n2)C1(C)C    ≥ 7.00
Cn1nc(N)c2c(-c3ccc(NC(=O)Nc4cccc(C(F)(F)F)c4)cc3)cc(C3(C(=O)N4CCCC4)CC3)nc21    ≥ 7.00

Pending compound:
**Q:** I'd like to know its pIC50. The compound in question is `CNC(=O)C1(c2cc(-c3ccc(NC(=O)Nc4cccc(C(F)(F)F)c4)cc3)c3c(N)nn(C)c3n2)CC1`
**A:** ≥ 7.00

---

# IC50 listing for each entry below
Molecular target: Tie2 (Homo sapiens, UniProt Q02763)
Experiment: Tie-2-Kinase HTRF-Assay without kinase preactivation (assay 2)
Type: biochemical
Design: A recombinant fusion protein of GST and the intracellular domains of Tie-2; GST; made in house; host or cells: insect cells (Hi-5)
Conditions: GST-Tie-2 intracellular domains, no preactivation, 10 μM ATP
Text: Assay 2: Tie-2-Kinase HTRF-Assay without Kinase Preactivation Tie2-inhibitory activity of compounds of the present invention was quantified employing two Tie2 HTRF assay as described in the following paragraphs. A recombinant fusion protein of GST and the intracellular domains of Tie-2, expressed in insect cells (Hi-5) and purified by Glutathion-Sepharose affinity chromatography was used as kinase. […]

**Q:** I'd like to know its IC50. The molecule in question is `Cn1nc(N)c2c(-c3ccc(NC(=O)Nc4cccc(C(F)(F)F)c4)cc3)cc(C3(C(=O)Nc4ccccc4)CC3)nc21`
**A:** 100 to 1000 nM

**Q:** I'd like to know its IC50. The molecule in question is Cn1nc(N)c2c(-c3ccc(NC(=O)Nc4ccccc4)cc3)ccnc21 [PA6, reference compound]
**A:** 1000 to 10000 nM

**Q:** I'd like to know its IC50. The molecule in question is Cc1ccc(F)c(NC(=O)Nc2ccc(-c3ccnc4c3c(N)nn4C)cc2)c1 [PA5, reference compound]
**A:** 100 to 1000 nM

---

target: human c-kit (Homo sapiens); construct: GST-tagged recombinant kinase domain of the human c-kit; GST; host or cells: SF-9 insect cells; experiment: cKIT-Kinase HTRF-Assay (assay 4); format: biochemical; conditions: IC50 assay 4/IC50 assay 2
endpoint: Selectivity vs. cKit

A = Cn1nc(N)c2c(-c3ccc(NC(=O)Nc4ccccc4)cc3)ccnc21 [PA6, reference compound]
B = Cn1nc(N)c2c(-c3ccc(NC(=O)Nc4cccc(C(F)(F)F)c4)cc3)cc(C3(C(=O)Nc4ccccc4)CC3)nc21
**Q:** Lower Selectivity vs. cKit: A or B ? API: response body contains the label of the selected item.
**A:** A

---

biological target: Tie2 (Homo sapiens); experiment: Tie2 ELISA assay (assay 1): cellular Tie2 autophosphorylation; format: cell-based; set-up: expressed in transfected cells; host or cells: CHO (DHFR-deficient), stably transfected; details: CHO cells stably transfected with Tie2, stimulated by angiopoietin-2; Tie2 autophosphorylation by sandwich-ELISA; read-out: Tie 2 activity (assay 1)
endpoint: IC50

Cn1nc(N)c2c(-c3ccc(NC(=O)Nc4cccc(C(F)(F)F)c4)cc3)cc(C3(C(=O)NCCN4CCOCC4)CC3)nc21 [Example 1.8]    ≤ 100 nM
COC(=O)C[C@@H]1C[C@H](c2cc(-c3ccc(NC(=O)Nc4cccc(C(F)(F)F)c4)cc3)c3c(N)nn(C)c3n2)C1(C)C [Example 8.2]    ≤ 100 nM
CC(C)NC(=O)C1(c2cc(-c3ccc(NC(=O)Nc4cccc(C(F)(F)F)c4)cc3)c3c(N)nn(C)c3n2)CC1 [Example 1.6]    ≤ 100 nM

**Q:** I'd like to know its IC50. The molecule in question is CCNC(=O)C1(c2cc(-c3ccc(NC(=O)Nc4cccc(C(F)(F)F)c4)cc3)c3c(N)nn(C)c3n2)CC1 [Example 1.5]
**A:** 100 to 1000 nM

**Q:** I'd like to know its IC50. The molecule in question is CCOC(=O)C1(c2cc(-c3ccc(NC(=O)Nc4ccccc4)cc3)c3c(N)nn(C)c3n2)CC1 [Example 1.1]
**A:** 100 to 1000 nM

**Q:** I'd like to know its IC50. The molecule in question is Nc1n[nH]c2nccc(-c3ccc(NC(=O)Nc4cccc(C(F)(F)F)c4)cc3)c12 [PA2, reference compound]
**A:** ≤ 100 nM

**Q:** I'd like to know its IC50. The molecule in question is CN(C)CCNC(=O)C1(c2cc(-c3ccc(NC(=O)Nc4cccc(C(F)(F)F)c4)cc3)c3c(N)nn(C)c3n2)CC1 [Example 1.9]
**A:** 100 to 1000 nM

**Q:** I'd like to know its IC50. The molecule in question is CN(C)C(=O)C1(c2cc(-c3ccc(NC(=O)Nc4cccc(C(F)(F)F)c4)cc3)c3c(N)nn(C)c3n2)CC1 [Example 1.10]
**A:** ≤ 100 nM

**Q:** I'd like to know its IC50. The molecule in question is Cn1nc(N)c2c(-c3ccc(NC(=O)Nc4cccc(C(F)(F)F)c4)cc3)ccnc21 [PA4, reference compound]
**A:** ≤ 100 nM

---

molecular target: Tie2 (Homo sapiens, UniProt Q02763); assay: Tie-2-Kinase HTRF-Assay without kinase preactivation (assay 2); type: biochemical; design: A recombinant fusion protein of GST and the intracellular domains of Tie-2; GST; made in house; host or cells: insect cells (Hi-5); settings: GST-Tie-2 intracellular domains, no preactivation, 10 μM ATP
pIC50: −log10 of the molar value.
endpoint: pIC50

Cn1nc(N)c2c(-c3ccc(NC(=O)Nc4cccc(C(F)(F)F)c4)cc3)cc(C3CCCCC3)nc21    ≥ 7.00
Cn1nc(N)c2c(-c3ccc(NC(=O)Nc4cccc(C(F)(F)F)c4)cc3)cc(C3(C(N)=O)CC3)nc21    ≥ 7.00
Cn1nc(N)c2c(-c3ccc(NC(=O)Nc4cccc(C(F)(F)F)c4)cc3)cc(C3CCC3)nc21    ≥ 7.00
CN(C)C(=O)C1(c2cc(-c3ccc(NC(=O)Nc4cccc(C(F)(F)F)c4)cc3)c3c(N)nn(C)c3n2)CC1    ≥ 7.00
Cc1ccc(F)c(NC(=O)Nc2ccc(-c3cc(C4(C(=O)N5CCCC5)CC4)nc4c3c(N)nn4C)cc2)c1    ≥ 7.00
Cn1nc(N)c2c(-c3ccc(NC(=O)Nc4cccc(C(F)(F)F)c4)cc3)cc(C3(C(=O)NC4CC4)CC3)nc21    ≥ 7.00

**Q:** I'd like to know its pIC50. The molecule in question is `CCOC(=O)C1(c2cc(-c3ccc(NC(=O)Nc4cccc(C(F)(F)F)c4)cc3)c3c(N)nn(C)c3n2)CC1`
**A:** ≥ 7.00

**Q:** I'd like to know its pIC50. The molecule in question is Nc1n[nH]c2nccc(-c3ccc(NC(=O)Nc4cccc(C(F)(F)F)c4)cc3)c12 [PA2, reference compound]
**A:** ≥ 7.00

**Q:** I'd like to know its pIC50. The molecule in question is `Cc1ccc(F)c(NC(=O)Nc2ccc(-c3cc(C4(C(=O)N(C)C)CC4)nc4c3c(N)nn4C)cc2)c1`
**A:** ≥ 7.00

**Q:** I'd like to know its pIC50. The molecule in question is `CCOC(=O)C1(c2cc(-c3ccc(NC(=O)Nc4ccccc4)cc3)c3c(N)nn(C)c3n2)CC1`
**A:** 6.00 to 7.00

**Q:** I'd like to know its pIC50. The molecule in question is `CCNC(=O)C1(c2cc(-c3ccc(NC(=O)Nc4cccc(C(F)(F)F)c4)cc3)c3c(N)nn(C)c3n2)CC1`
**A:** ≥ 7.00
